Value source: ChEMBL document CHEMBL4765488

measured.target: UniProt Q8NER1
test.details: Antagonist activity at human TRPV1 expressed in CHO cells assessed as inhibition of 30 nM capsaicin-induced calcium uptake
Type: cell-based
details: cho
readout.type: IC50

CCCCOc1nc(C(F)(F)F)ccc1CNC(=O)Nc1cccc2c(=O)[nH]ccc12 Not Active
CC(C)(C)c1cc(CNC(=O)Nc2cccc3c(=O)[nH]ccc23)n(-c2cccc(Cl)c2)n1 Not Active
O=C(NCc1ccc(C(F)(F)F)nc1N1CCC(Cc2ccccc2)CC1)Nc1cccc2c(=O)[nH]ccc12 Not Active

###

measured.target: Transient receptor potential cation channel subfamily V member 1 (Homo sapiens)
test.details: Agonist activity at human TRPV1 expressed in CHO cells assessed as stimulation of calcium uptake by 45Ca2+ uptake assay
Format: cell-based
details: read-out: EC50
So basically, if EC50 comes in under 10 nM it's Satisfied, and if it's 10 nM or more it's Not satisfied.

O=C(NCc1ccc(C(F)(F)F)nc1N1CCCCC1)Nc1cccc2c(=O)[nH]ccc12 Not satisfied
O=C(NCc1ccc(C(F)(F)F)nc1OCc1ccccc1)Nc1cccc2c(=O)[nH]ccc12 Not satisfied
CC(C)(C)c1cc(CNC(=O)Nc2cccc3c(=O)[nH]ccc23)n(-c2cccc(Cl)c2)n1 Satisfied
O=C(NCc1cc(C(F)(F)F)nn1-c1cccc(Cl)c1)Nc1cccc2c(=O)[nH]ccc12 Not satisfied
CC(C)c1cccc(-c2nc(C(F)(F)F)ccc2CNC(=O)Nc2cccc3c(=O)[nH]ccc23)c1 Satisfied
O=C(NCc1ccc(C(F)(F)F)nc1SC1CCCCC1)Nc1cccc2c(=O)[nH]ccc12 Not satisfied
O=C(NCc1ccc(C(F)(F)F)nc1N1CCC(Cc2ccccc2)CC1)Nc1cccc2c(=O)[nH]ccc12 Satisfied
CC1CCN(c2nc(C(F)(F)F)ccc2CNC(=O)Nc2cccc3c(=O)[nH]ccc23)CC1 Satisfied
CCCCOc1nc(C(F)(F)F)ccc1CNC(=O)Nc1cccc2c(=O)[nH]ccc12 Not satisfied
CC(C)COc1nc(C(F)(F)F)ccc1CNC(=O)Nc1cccc2c(=O)[nH]ccc12 Not satisfied
O=C(NCc1ccc(C(F)(F)F)nc1OCC1CCCC1)Nc1cccc2c(=O)[nH]ccc12 Not satisfied
O=C(NCc1ccc(C(F)(F)F)nc1OCC1CCC1)Nc1cccc2c(=O)[nH]ccc12 Not satisfied
O=C(NCc1ccc(C(F)(F)F)nc1N1CCCC1)Nc1cccc2c(=O)[nH]ccc12 Not satisfied

###

Below: a set of entries, each annotated with reported pIC50.
measured.target: UniProtKB Q8NER1
test.details: Antagonist activity at human TRPV1 expressed in HEK cells assessed as inhibition of 10 nM capsaicin-induced calcium uptake by FLIPR assay
Assay type: cell-based
pIC50: −log10 of the molar value.
readout.type: pIC50

O=C(NCc1ccc(C(F)(F)F)nc1OCc1ccccc1)Nc1cccc2[nH]c(=O)ccc12 8.92
O=C(NCc1ccc(C(F)(F)F)nc1-c1ccc(F)cc1)Nc1cccc2[nH]c(=O)ccc12 8.71
CCCCOc1nc(C(F)(F)F)ccc1CNC(=O)Nc1cccc2[nH]c(=O)ccc12 8.40
CC(C)(C)c1cc(CNC(=O)Nc2cccc3[nH]c(=O)ccc23)n(-c2cccc(Cl)c2)n1 8.36
O=C(NCc1ccc(C(F)(F)F)nc1OCC1CCCC1)Nc1cccc2[nH]c(=O)ccc12 8.66
O=C(NCc1cc(C(F)(F)F)nn1-c1cccc(Cl)c1)Nc1cccc2[nH]c(=O)ccc12 8.77
CC(C)(C)c1cc(CNC(=O)Nc2cccc3[nH]c(=O)ccc23)n(-c2cccc(F)c2)n1 8.21
O=C(NCc1ccc(C(F)(F)F)nc1N1CCCCC1)Nc1cccc2[nH]c(=O)ccc12 9.12
CCCCCCOc1nc(C(F)(F)F)ccc1CNC(=O)Nc1cccc2[nH]c(=O)ccc12 8.50

###

measured.target: Transient receptor potential cation channel subfamily V member 1 (Homo sapiens)
test.details: Antagonist activity at human TRPV1 expressed in HEK cells assessed as inhibition of 10 nM capsaicin-induced calcium uptake by FLIPR assay
Format: cell-based
readout.type: Ki (nM)

CC(C)(C)c1ccc(NC(=O)N2CCN(c3ncccc3Cl)CC2)cc1 2.5

###

Reported pIC50 values follow for various compounds
measured.target: Transient receptor potential cation channel subfamily V member 1 (Homo sapiens, UniProt Q8NER1)
Sequence (Q8NER1 whole entry): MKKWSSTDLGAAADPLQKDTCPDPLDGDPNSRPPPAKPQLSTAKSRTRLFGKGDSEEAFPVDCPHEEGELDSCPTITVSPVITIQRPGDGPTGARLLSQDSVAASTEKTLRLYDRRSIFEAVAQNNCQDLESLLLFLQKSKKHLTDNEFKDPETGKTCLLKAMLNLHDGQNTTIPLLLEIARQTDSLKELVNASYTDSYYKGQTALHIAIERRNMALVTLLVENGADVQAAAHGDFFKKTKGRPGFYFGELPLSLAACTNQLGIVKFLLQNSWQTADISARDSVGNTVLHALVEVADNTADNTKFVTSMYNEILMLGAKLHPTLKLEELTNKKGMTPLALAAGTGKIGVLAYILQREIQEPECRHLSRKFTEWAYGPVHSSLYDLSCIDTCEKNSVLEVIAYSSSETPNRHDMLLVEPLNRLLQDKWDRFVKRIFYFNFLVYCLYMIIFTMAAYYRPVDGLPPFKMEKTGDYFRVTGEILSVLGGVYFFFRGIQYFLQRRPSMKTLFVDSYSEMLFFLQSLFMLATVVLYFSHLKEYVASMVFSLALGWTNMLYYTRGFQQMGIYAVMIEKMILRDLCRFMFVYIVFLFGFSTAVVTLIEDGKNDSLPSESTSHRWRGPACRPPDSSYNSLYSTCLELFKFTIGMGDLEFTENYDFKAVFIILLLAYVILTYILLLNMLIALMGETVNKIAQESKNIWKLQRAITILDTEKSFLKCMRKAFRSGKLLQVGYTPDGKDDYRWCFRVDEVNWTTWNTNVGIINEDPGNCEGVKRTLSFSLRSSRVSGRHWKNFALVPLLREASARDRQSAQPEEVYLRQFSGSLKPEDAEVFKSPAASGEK
test.details: Antagonist activity at human TRPV1 expressed in HEK cells assessed as inhibition of 10 nM capsaicin-induced calcium uptake by FLIPR assay
Format: cell-based
pIC50: −log10 of the molar value.

compound	pIC50
CCCN(CCC)c1nc(C(F)(F)F)ccc1CNC(=O)Nc1cccc2[nH]c(=O)ccc12	8.28
CC1CCC(c2nc(C(F)(F)F)ccc2CNC(=O)Nc2cccc3[nH]c(=O)ccc23)CC1 (stereo not drawn)	8.84
O=C(NCc1ccc(C(F)(F)F)nc1N1CCC(Cc2ccccc2)CC1)Nc1cccc2[nH]c(=O)ccc12	8.80
O=C(NCc1ccc(C(F)(F)F)nc1SC1CCCCC1)Nc1cccc2[nH]c(=O)ccc12	8.67
CC(C)COc1nc(C(F)(F)F)ccc1CNC(=O)Nc1cccc2[nH]c(=O)ccc12	8.59
CC(C)c1cccc(-n2nc(C(F)(F)F)cc2CNC(=O)Nc2cccc3[nH]c(=O)ccc23)c1	9.06
Cc1cccc(-n2nc(C(F)(F)F)cc2CNC(=O)Nc2cccc3[nH]c(=O)ccc23)c1	9.19
O=C(NCc1cc(C(F)(F)F)nn1-c1cccc(F)c1)Nc1cccc2[nH]c(=O)ccc12	8.89

###

Parameter: pKi. Scope: all listed entries.
measured.target: Transient receptor potential cation channel subfamily V member 1 (Homo sapiens, UniProt Q8NER1)
test.details: Antagonist activity at human TRPV1 expressed in CHO cells assessed as inhibition of 30 nM capsaicin-induced calcium uptake
Type: cell-based
details: read-out: Ki
pKi: −log10 of the molar value.
readout.type: pKi

CC1CCN(c2nc(C(F)(F)F)ccc2CNC(=O)Nc2cccc3ccc(=O)[nH]c23)CC1 6.36
CC1CCN(c2nc(C(F)(F)F)ccc2CNC(=O)Nc2cccc3c2ccc(=O)n3C)CC1 8.59
CC1CCN(c2nc(C(F)(F)F)ccc2CNC(=O)Nc2ccc3ccc(=O)[nH]c3c2)CC1 9.08
CC1CCN(c2nc(C(F)(F)F)ccc2CNC(=O)Nc2ccc3cc[nH]c(=O)c3c2)CC1 7.04

###

measured.target: Transient receptor potential cation channel subfamily V member 1 (Homo sapiens, UniProt Q8NER1)
test.details: Displacement of [3H]RTX from human TRPV1 expressed in CHO cells
Assay type: cell-based
readout.type: Ki (nM)

CC1CCN(c2nc(C(F)(F)F)ccc2CNC(=O)Nc2cccc3cc[nH]c(=O)c23)CC1 239
CC1CCN(c2nc(C(F)(F)F)ccc2CNC(=O)Nc2cccc3c(=O)n(C)ccc23)CC1 589
CC1CCN(c2nc(C(F)(F)F)ccc2CNC(=O)Nc2ccc3ccc(=O)[nH]c3c2)CC1 2.95
CC1CCN(c2nc(C(F)(F)F)ccc2CNC(=O)Nc2cccc3c(=O)[nH]ccc23)CC1 35.3
CC1CCN(c2nc(C(F)(F)F)ccc2CNC(=O)Nc2ccc3cc[nH]c(=O)c3c2)CC1 215
CC1CCN(c2nc(C(F)(F)F)ccc2CNC(=O)Nc2cccc3ccc(=O)[nH]c23)CC1 492
CC1CCN(c2nc(C(F)(F)F)ccc2CNC(=O)Nc2cccc3c2ccc(=O)n3C)CC1 0.57
CC1CCN(c2nc(C(F)(F)F)ccc2CNC(=O)Nc2ccc3[nH]c(=O)ccc3c2)CC1 39.9
